// label = label 1 if melting point is not less than 90 °C, otherwise label 0

- Clc1c2ccccc2nc2ccccc12: label 1
- CCCCCCCCC=CCCCCCCCCCCCCO: label 0
- CCOc1ccccc1[N+](=O)[O-]: label 0
- O=C(Cl)c1ccc(-c2ccco2)s1: label 0
- O=[N+]([O-])OC1COC2C(O[N+](=O)[O-])COC12 (stereo not drawn): label 0
- CCc1ccsc1: label 0
- O=C(Nc1ccccc1C#CC#Cc1ccccc1NC(=O)c1ccccc1)c1ccccc1: label 1

---

property: melting point (°C)

- NC(=O)c1cc(C(=O)CN(Cc2ccccc2)Cc2ccccc2)ccc1O: 168
- CCCCCCCCCCNCCCCCCCCCC: 40
- CC(=O)N1CC(O)CC1C(=O)O (stereo unspecified): 132
- CN1CCN(C(=O)OC2c3nccnc3C(=O)N2c2ccc(Cl)cn2)CC1 (stereo unspecified): 178
- O=C(C(=O)c1cccc2ccccc12)c1ccccc1: 102
- CCCCc1ccc(C(=O)O)cc1: 106

---

Reported melting point values for a set of compounds
property: melting point (°C)

- O=C(O)COc1ccc(Cl)c(Cl)c1: 139
- O=[N+]([O-])c1ccc(-c2nnc3n2NC(c2ccc(Cl)cc2)S3)cc1 (stereo not drawn): 220
- CCCCCCCCCCCCCCCC(=O)OCC: 24
- O=C(O)C=Cc1ccc(C=CC(=O)O)cc1: 300
- COc1ccc2c(c1)c(CC(=O)O)c(C)n2C(=O)C=Cc1ccccc1: 170
- COc1ccc(Cl)cc1C#N: 100
- O=c1[nH]ncc(Cl)c1Cl: 202
- CC/C(=N\NC(N)=O)C1CC2(C)CCC1C2(C)C (stereo not drawn): 222

---

Classification by melting point follows these ranges: interval 1 (below 80 °C), interval 2 (80 °C to below 200 °C), interval 3 (200 °C or more)

* CCOC(=O)c1cn[nH]c1 | interval 1
* O=[N+]([O-])c1ccc2c(c1)NCC2 | interval 1
* O=C1NN=C(C(F)(F)F)C1=NNc1ccccc1 | interval 2
* Oc1ccccc1C=Nn1c(S)nnc1C(F)(F)F | interval 2
* c1ccc(/N=N/c2ccccc2/N=N/c2ccccc2)cc1 | interval 2
* Cc1ccc(NC=C2C(=O)NN=C2c2c(O)c3ccccc3n(C)c2=O)cc1 | interval 3
* Nc1ncccc1[N+](=O)[O-] | interval 2
* Cc1ccc(O)c([N+](=O)[O-])n1 | interval 2
* CC12CCC(C(=O)C(Br)(Br)C1=O)C2(C)C (stereo unspecified) | interval 2
* CCOC(=O)c1ccc2c(c1)OCO2 | interval 1
* CC(C)C1OC(=O)C2CCC1(C)OC2(C)C (stereo unspecified) | interval 2
* Cc1ncc([N+](=O)[O-])n1CC(O)CCl (stereo unspecified) | interval 1
* O=C(NCc1ccccn1)C(F)(F)F | interval 1
* CC(C)(C)NSc1nc2ccccc2s1 | interval 2
* Cc1ccccc1CCO | interval 1
* COC(=O)c1nc(Cl)c(N)nc1N | interval 3
* Cn1ncc(Br)c1C=O | interval 1
* COc1cccc(OC)c1/C=N/n1c(S)nnc1C(F)(F)F | interval 2
* CN(C)Cc1c(O)c(Br)c(C(=O)O)c(Br)c1O | interval 3
* O=C(O)Cc1cccc(I)c1 | interval 2
* c1ccc2c(c1)c1cccc3c4c5ccccc5c5cccc(c2c13)c54 | interval 3
* Clc1ccc(OCOc2ccc(Cl)cc2)cc1 | interval 1
* Cc1cc(C)c(C(=O)P(=O)(c2ccccc2)c2ccccc2)c(C)c1 | interval 2
* COc1cc(NS(=O)(=O)c2ccc(N)cc2)nc(C)n1 | interval 2
* NC(N)=NS(=O)(=O)c1ccc(N)cc1 | interval 2
* CC(=O)c1nn(-c2cccc(C)c2C)c(=N)s1 | interval 2
* NC(Cc1c[nH]c2ccc(O)cc12)C(=O)O (racemic) | interval 3
* Cc1cc(C(=O)NCCc2ccc(S(=O)(=O)NC(=O)NN3CCCCCC3)cc2)no1 | interval 2
* CCCCCC#CCC(=O)O | interval 1
* CC(C)OC(=O)C1(S(=O)(=O)c2ccc([N+](=O)[O-])cc2)CC1 | interval 2
* CC(O)CC(C)(C)C (stereo unspecified) | interval 1

The values you see were collected from a melting point compilation (Tetko et al.).
